The reader will find reported viability at 48 h, 3 µM values listed item by item below.
# test-details: in vitro
# condition: human, HepG2-A16-CD81EGFP cells, uninfected
Unit % implied. Number only.

Study these solved cases before continuing.
compound: O=C1NCc2ccccc2CC12CCCN(Cc1ccccc1)C2 (centres unmarked) [NCGC00377595-01]
viability at 48 h, 3 µM / %: 104
--
compound: CCN1CCN(Cc2c(O)ccc3c(=O)c(Oc4ccccc4Cl)c(C(F)(F)F)oc23)CC1 [NCGC00101484-01]
viability at 48 h, 3 µM / %: 94.1
--
compound: CCCc1cc(=O)oc2cc(C)cc(OCC(=O)Nc3cccnc3)c12 [MLS001160340-01]
viability at 48 h, 3 µM / %: 99
--
compound: Cc1ccc2nc3c(c(Nc4ccc(O)cc4)c2c1)CCC3 [MLS001196969-01]
viability at 48 h, 3 µM / %: 99

Query: Looking for the measured viability at 48 h, 3 µM of O=C(Nc1ccc(C2=NCCN2)cc1)c1ccc(C(=O)Nc2ccc(C3=NCCN3)cc2)c([N+](=O)[O-])c1 [MLS000737369-01] , can you help?
Response: 85

Query: What value of measured viability at 48 h, 3 µM is listed for COc1ccc(C2=Nn3c([n+](C)c4ccccc43)SC2)cc1 [MLS000717833-01] ?
Response: 63

Query: Look up viability at 48 h, 3 µM for this compound: CCOC(=O)c1cnc2cc(OCC(C)C)c(OCC(C)C)cc2c1O [NCGC00167562-01]
Response: 82

Query: Recorded viability at 48 h, 3 µM of CCCSc1ccc([C@H]2N[C@@](Cc3ccccc3)(C(=O)OC)[C@H]3C(=O)N(CC)C(=O)[C@@H]23)cc1 [MLS001362807-01] , please.
Response: 103

----------
# Test system: P. falciparum Dd2 (clone B2) asexual blood stage parasites
# test-details: P. falciparum Dd2 asexual blood stage SYBR Green-I 72 h proliferation assay (qHTS)
# Assay type: cell-based, Plasmodium falciparum
# condition: Plasmodium falciparum, DD2, Dd2 parental; Hill fit, averaged from three independent replicates; top concentration 29 µM; read-out: Average AC50 (Log[M]), Dd2 (converted)
metric: AC50 (M)
API: value field is a number in M; no unit string.

These solved cases illustrate the format of a correct answer.
compound: CCCN1C(CC(C)C)=N[S+](=O)([O-])c2cc(NC(=O)c3ccc(OC(F)(F)F)cc3)ccc21
AC50 [M]: 1.26e-06
--
compound: CCCN1C(CC(C)C)=N[S+](=O)([O-])c2cc(NC(=O)C3CCCO3)ccc21 (stereo not shown)
AC50 [M]: 1.26e-05
--
compound: CCCN1C(CC(C)C)=N[S+](=O)([O-])c2cc(NC(=O)c3cccc(OC(F)(F)F)c3)ccc21
AC50 [M]: 1.12e-05
--
compound: CCCN1C(C)=N[S+](=O)([O-])c2cc(NC(=O)c3cccs3)ccc21
AC50 [M]: 8.93e-06
--
compound: CCCN1C(CC(C)C)=N[S+](=O)([O-])c2cc(NC(=O)c3ncccn3)ccc21
AC50 [M]: 1.12e-05
--
compound: CCCN1C(CC(C)C)=N[S+](=O)([O-])c2cc(NC(=O)c3ccccc3F)ccc21
AC50 [M]: 4.66e-06

Query: // fetch P. falciparum Dd2 (clone B2) asexual blood stage parasites AC50 for `CCCN1C(CC(C)C)=N[S+](=O)([O-])c2cc(N[S+](=O)([O-])c3cccs3)ccc21`
Response: 1.78e-05

Query: Query AC50 on P. falciparum Dd2 (clone B2) asexual blood stage parasites for `CCCN1C(CC(C)C)=N[S+](=O)([O-])c2cc(NC(=O)c3cc4ncccn4n3)ccc21`
Response: 1e-05

Query: Look up AC50 with P. falciparum Dd2 (clone B2) asexual blood stage parasites for this compound: `CCCN1C(CC(C)C)=N[S+](=O)([O-])c2cc(NC(=O)C(=O)OCC)ccc21`
Response: 1.59e-05

Query: Please tell me: AC50 of `CCCN1C(CC(C)C)=N[S+](=O)([O-])c2cc(NC(=O)c3nccs3)ccc21` , system P. falciparum Dd2 (clone B2) asexual blood stage parasites?
Response: 9.29e-06

Query: # value lookup — system P. falciparum Dd2 (clone B2) asexual blood stage parasites, readout AC50, item `CC(C)CC1=N[S+](=O)([O-])c2cc(NC(=O)c3cccs3)ccc2N1C`
Response: 1.85e-06

Query: Which measured AC50 belongs to `CCCN1C(CC(C)C)=N[S+](=O)([O-])c2cc(N)ccc21` , tested on P. falciparum Dd2 (clone B2) asexual blood stage parasites?
Response: 2e-05

Query: Report AC50 for `CCCN1C(CC(C)C)=N[S+](=O)([O-])c2cc(NC(=O)C3CCN(C)CC3)ccc21` tested on P. falciparum Dd2 (clone B2) asexual blood stage parasites.
Response: 2.08e-05

----------
In this section, each of the compounds is paired with its reported viability.
# test-details: in vitro
# condition: human
Please give a number only; it is taken to be in %.

Sample answers from the record:
compound: CCC1(OC(=O)CN)C(=O)OCc2c1cc1n(c2=O)Cc2cc3ccccc3nc2-1 (stereo not shown)
viability (%): 24.7
//
compound: COc1ccc(-c2c[n+](CC(=O)c3cccs3)c3n2CCC3)cc1
viability (%): 101
//
compound: CN(C)S(=O)(=O)Oc1ccsc1C(=O)Nc1cccc(Cl)c1
viability (%): 102

Query: Find the recorded viability belonging to `CCN(CC)C1=NC(=[N+](CC)CC)c2ccccc21.[O-][Cl+3]([O-])([O-])O` and report it.
Response: 81.5

----------
# test-details: in vitro
# condition: human, HepG2-A16-CD81EGFP cells, uninfected
This section presents compounds with their documented viability at 48 h, 1 µM values.
Unit % implied. Number only.

compound: CC(C)COc1ccc(C(=O)N/C(=C\c2cccc([N+](=O)[O-])c2)C(=O)OC(C)C)cc1
viability at 48 h, 1 µM, %: 111
--
compound: CCOC(=O)CCCCC(=O)c1[nH]c(=O)[nH]c1Cn1ccnc1
viability at 48 h, 1 µM, %: 98
--
compound: COc1ccc(CN2CCCn3nc(C)c(-c4ccccc4Oc4ccccc4)c32)cc1O
viability at 48 h, 1 µM, %: 101
--
compound: COc1cc(O)c(C(CCN2CCN(c3ccccc3)CC2)c2cc(OC)c(OC)c(OC)c2)c(OC)c1 (centres unmarked)
viability at 48 h, 1 µM, %: 96

Query: viability at 48 h, 1 µM lookup needed for COc1cc2ccccc2cc1C(=O)N1CC(C)CC(C)C1 (centres unmarked) , thanks.
Response: 108

Query: What value of viability at 48 h, 1 µM has been reported for the following compound? `O=C(Nc1ccc2c(N3CCOCC3)ncnc2c1)c1ccc(Br)o1`
Response: 110

Query: Return reported viability at 48 h, 1 µM; argument: `c1ccc2c(NCCc3c[nH]c4ccccc34)c3ccccc3nc2c1`
Response: 92

Query: For the compound shown here, `c1ccc(CCNc2nc(-c3ccccn3)nc3ccccc23)cc1` , give the reported viability at 48 h, 1 µM.
Response: 96.1

----------
# test-details: in vitro
# condition: human, hepg2 cells
# reported CC50 at 48 h; entries follow
Please respond with the number in µM and leave the unit unwritten.

Observe how each entry below is paired with its result.
molecule: Cc1cc(NCc2ccccn2)n2nc(C)c(-c3ccccc3)c2n1
numeric-value: 1.09
//
molecule: COc1ccc(C(=O)N2CCC(n3cc(-c4nc(-c5ccccc5)no4)nn3)C2)cc1 (stereo not drawn)
numeric-value: 43.2
//
molecule: CC(=O)Nc1ccc(NC2=Nc3ccccc3N3C2=Nc2c(c(C)nn2-c2ccccc2)C3c2ccccc2)cc1 (stereo not drawn)
numeric-value: 48.5
//
molecule: Cc1cc(Cl)c(S(=O)(=O)N2CCN(c3ccccn3)CC2)cc1OCC(=O)NC1CCCCC1
numeric-value: 27.3
//
molecule: COc1ccc(-c2cc3nc4c(c(=O)n3[nH]2)CN(C(=O)c2ccc(Cc3c(C)noc3C)o2)CC4)cc1
numeric-value: 0.685

Query: // returns reported CC50 at 48 h for input `COc1cc2nc(N3CCN(c4cc(C)ccc4C)CC3)nc(N)c2cc1OC.Cl`
Response: 43.2

Query: Reported CC50 at 48 h, molecule `Cc1nc(N2CCC(NC(=O)c3cc4ccccc4[nH]3)CC2)cc(C(F)(F)F)n1` : ____
Response: 34.3

Query: Would you mind telling me what CC50 at 48 h value was observed for `O=C(Nc1ccccc1)OC[C@H]1C[C@@H]2CCN1C[C@@H]2c1cc(C2CCCC2)nc(-c2ccncc2)n1` ?
Response: 34.3

----------
The entries below are paired with their reported viability at 48 h, 1 µM.
# test-details: in vitro
# condition: human, HepG2-A16-CD81EGFP cells, uninfected

compound: C=C(C)COc1ccc(-c2ncnc(C(F)(F)F)c2-c2ccc(OC)cc2)c(O)c1
viability at 48 h, 1 µM: 89%
--
compound: Cc1cc(C(C)c2ccccc2)c(O)c(CN2CCOCC2)c1C (stereo not drawn)
viability at 48 h, 1 µM: 108%
--
compound: CC(C)(C)CC(C)(C)c1ccc(O)c(CN2CCN(CCC#N)CC2)c1
viability at 48 h, 1 µM: 112%
--
compound: CCN1CCN(c2cc(C)c3cc(NC(=O)c4cc(OC)c(OC)c(OC)c4)ccc3n2)CC1
viability at 48 h, 1 µM: 100%
--
compound: CCN1CCN(c2ccc(Nc3ccnc4ccccc34)cc2)CC1
viability at 48 h, 1 µM: 95%
--
compound: COc1cc(NC(=O)c2cc3c(Cl)nc4ccccc4c3s2)cc(OC)c1OC
viability at 48 h, 1 µM: 90%

Query: For `Cc1cccc(NC(=O)Cn2c(C)c(C#N)c3ccccc32)c1C` , what is its reported viability at 48 h, 1 µM?
Response: 99.9%

Query: Which viability at 48 h, 1 µM value is on record for Cc1ccccc1[S+](=O)([O-])N1CCCC(CCC(=O)NCCN(C)C2CCCCC2)C1 (stereo not drawn) ?
Response: 112%

Query: Given the entry `c1ccc2cc3c(NCCN4CCOCC4)ccnc3cc2c1` , report its measured viability at 48 h, 1 µM.
Response: 89%

Query: # viability at 48 h, 1 µM lookup, item CN(C)CC(CCC(CN(C)C)C(O)(c1ccccc1)c1ccccc1)C(O)(c1ccccc1)c1ccccc1 (stereo not drawn)
Response: 101%

Query: viability at 48 h, 1 µM lookup needed for `Cc1cc(C)cc(Nc2cc(C)nc3nc(C)nn23)c1` , thanks.
Response: 112%

Query: // returns reported viability at 48 h, 1 µM for input `Cc1cccc(NC2=C(NC(=O)c3ccccc3)C(=O)c3ccccc3C2=O)c1`
Response: 98%

Query: For the compound `c1ccc(Nc2cc3c(cn2)CN(Cc2ccc4[nH]ccc4c2)CCN3)cc1` , what viability at 48 h, 1 µM is on record?
Response: 40.4%

Query: Value lookup for viability at 48 h, 1 µM; key = `CCN(Cc1ccccc1)C(=O)CCC[C@@H]1[C@H]2CCCN3CCC[C@@H](CN1C(=O)c1ccccc1)[C@@H]23`
Response: 93.4%

Query: Which viability at 48 h, 1 µM is listed for `CCN1CCN(Cc2ccc(NC(=O)c3cc(NC(=O)c4nccnc4N)cc(OC)c3)cc2C(F)(F)F)CC1` ?
Response: 89%

Query: # lookup: viability at 48 h, 1 µM of `O=S(=O)(c1ccc(Cl)cc1)N1CCN(/C(S)=N/c2ccccc2F)CC1`
Response: 97%

Query: I have this compound here, Cc1ccccc1OCC(O)CN(Cc1ccccc1O)C1CCCCC1 (stereo not drawn) , and I need its recorded viability at 48 h, 1 µM.
Response: 85%

Query: Need viability at 48 h, 1 µM, item `O=C(Nc1c(C(=O)c2ccccc2)oc2ccccc12)c1cc(-c2ccccc2O)n[nH]1`
Response: 100%

Query: Look up viability at 48 h, 1 µM: `O=C(Nc1ccc(C2=NCCN2)cc1)c1ccc(C(=O)Nc2ccc(C3=NCCN3)cc2)c([N+](=O)[O-])c1`
Response: 94%
